# test: Scintigraphic imaging and biodistribution of Tc-99m labeled peptides in E. coli-infected rabbits
# Type: in vivo, New Zealand white rabbits
# runConditions: rabbit, in vivo, iv, Blood (% ID/g)
# Method: After 24 h, the animals were sedated by i.m. injection of ketamine and xylazine, and then injected i.v. with Tc-99m labeled peptide (≤150 μg, 2-10 mCi). The animals were positioned supine in the field of view of a gamma camera (LEAP collimator/photopeaked for Tc-99m) and imaged over the first hour post-injection, and then at approximately 1 h intervals over the next three hours post injection. Animals were allowed to recover between image acquisitions and re-anesthetized as needed. […]
Where a SMILES comes first, the peptide text is derived from it. The star is where a group is joined. X1 = CC(C)(S)CNCCN(CCCCC(=O)*)CC(C)(C)S
experimentalEndpoint: tissue uptake (%ID/g)
One number for each entry, in %ID/g.

Notebook: CC[C@H](C)[C@H](NC(=O)[C@H](CCCCN)NC(=O)[C@H](CCCCN)NC(=O)[C@H](Cc1ccc(O)cc1)NC(=O)[C@H](CC(C)C)NC(=O)[C@@H]1CCCN1C(=O)CNC(=O)CNC(=O)CCCCN(CCNCC(C)(C)S)CC(C)(C)S)C(=O)N[C@H](C(=O)N[C@@H](CCCCN)C(=O)N[C@@H](CCCCN)C(=O)N[C@@H](CC(C)C)C(=O)N[C@@H](CC(C)C)C(=O)N[C@@H](CCC(=O)O)C(=O)N[C@@H](CO)C(=O)O)[C@@H](C)CC [[BAT].GGPLYKKIIKKLLES] (X1-GGPLYKKIIKKLLES-OH; N-terminus and C-terminus assumed) , tissue uptake read as 0.004
